Some compounds, each annotated with its measured IC50.
target: Full length Human HDAC1 (Homo sapiens, UniProt Q13547); construct: Full length Human HDAC1; His (C); FLAG (C); host or cells: baculovirus expression system; experiment: HDAC1 enzymatic assay (deacetylation of FAM-labeled peptide substrate, microfluidic electrophoresis); format: biochemical; conditions: recombinant enzymatic assay, Table 2, class symbols
Sequence (Q13547 whole entry): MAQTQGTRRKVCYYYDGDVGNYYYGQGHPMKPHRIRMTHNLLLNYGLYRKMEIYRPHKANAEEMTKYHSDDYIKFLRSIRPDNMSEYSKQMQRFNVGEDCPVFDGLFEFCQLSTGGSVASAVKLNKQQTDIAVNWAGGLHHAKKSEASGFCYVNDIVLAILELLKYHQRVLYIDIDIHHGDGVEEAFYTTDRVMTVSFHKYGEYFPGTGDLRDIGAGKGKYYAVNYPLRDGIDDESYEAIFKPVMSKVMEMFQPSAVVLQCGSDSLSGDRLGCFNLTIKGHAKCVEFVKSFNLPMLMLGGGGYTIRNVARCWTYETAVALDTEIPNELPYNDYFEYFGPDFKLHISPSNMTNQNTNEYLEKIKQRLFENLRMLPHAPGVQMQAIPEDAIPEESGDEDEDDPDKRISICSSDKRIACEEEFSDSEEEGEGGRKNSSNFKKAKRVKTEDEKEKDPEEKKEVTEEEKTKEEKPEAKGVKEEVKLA

Past entries and their recorded results:
Query :: // fetch Full length Human HDAC1 (Homo sapiens, UniProt Q13547) IC50 for Nc1ccc(-c2ccc(F)cc2F)nc1NC(=O)N1CC(CCc2ccccn2)C1
Result :: 500 to 1000 nM

Query :: // fetch Full length Human HDAC1 (Homo sapiens, UniProt Q13547) IC50 for Nc1ccc(-c2ccc(F)cc2)nc1NC(=O)N1CC(C(F)(F)c2ncccn2)C1
Result :: < 500 nM

Query :: // fetch Full length Human HDAC1 (Homo sapiens, UniProt Q13547) IC50 for Nc1ccc(-c2cccs2)nc1NC(=O)N1CC(C(F)(F)c2ncccn2)C1
Result :: < 500 nM

Query :: // fetch Full length Human HDAC1 (Homo sapiens, UniProt Q13547) IC50 for Nc1ccc(-c2ccc(F)cc2F)nc1NC(=O)N1CC(CCc2ncccn2)C1
Result :: > 2000 nM

Query :: // fetch Full length Human HDAC1 (Homo sapiens, UniProt Q13547) IC50 for Nc1ccc(-c2ccc(F)cc2F)nc1NC(=O)N1CC(Cc2ncccn2)C1
Result :: < 500 nM

---
Query :: // fetch Full length Human HDAC1 (Homo sapiens, UniProt Q13547) IC50 for Cc1cc(CC2CN(C(=O)Nc3nc(-c4ccc(F)cc4F)ccc3N)C2)ncn1
Result :: 1000 to 2000 nM

Query :: // fetch Full length Human HDAC1 (Homo sapiens, UniProt Q13547) IC50 for Nc1ccc(-c2ccc(F)cc2)nc1NC(=O)N1CC(Cn2cccn2)C1
Result :: 500 to 1000 nM

Query :: // fetch Full length Human HDAC1 (Homo sapiens, UniProt Q13547) IC50 for Cc1cnc(CC2CN(C(=O)Nc3nc(-c4ccc(F)cc4)ccc3N)C2)nc1
Result :: < 500 nM

Query :: // fetch Full length Human HDAC1 (Homo sapiens, UniProt Q13547) IC50 for Nc1ccc(-c2ccc(F)cc2)nc1NC(=O)N1CC(Cc2ncccn2)C1
Result :: < 500 nM
